Ref: paper PMC11480844

B1: H2-Kb / B10 (parent)
chain 1: GQQVQQSPASLVLQEGENAELQCNFSSTATRLQWFYQRPGGSLVSLLSNPSGTKHTGRLTSTTVTKERRGSLHISSSQITDSGTYLCAPGGSNAKLTFGKGTKLSVKS
chain 2: DPKIIQKPKYLVAVTGSEKILICEQYLGHNAMYWYRQSAKKPLEFMFSYSYQKLMDNQTASSRFQPQSSKKNHLDLQITALKPDDSATYFCASSLRGGNNQAPLFGEGTRLSVL
chain 3: not shown
chain 4: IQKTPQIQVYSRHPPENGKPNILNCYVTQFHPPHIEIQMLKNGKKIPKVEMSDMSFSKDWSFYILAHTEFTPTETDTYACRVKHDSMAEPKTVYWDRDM
chain 5: SIINFEKL

# Variants of: B1
# TEST METHOD NOTES: % of reporter cells activated (NFAT-GFP), raw; further: test concentration or dose not given here
# ASSAY CONTEXT: with B10; scale: % of reporter cells activated
Hi! Could you tag entries with ratio to parent below 1 as Criterion met, and those at or above as Criterion not met? Much appreciated.

API: query returns whether the variant falls strictly under 1 in ratio to parent. Query: chain 5 N4V
Criterion not met

API: query returns whether the variant falls strictly under 1 in ratio to parent. Query: chain 5 N4Q
Criterion not met

API: query returns whether the variant falls strictly under 1 in ratio to parent. Query: chain 5 I2G
Criterion met

API: query returns whether the variant falls strictly under 1 in ratio to parent. Query: chain 5 N4E
Criterion not met

API: query returns whether the variant falls strictly under 1 in ratio to parent. Query: chain 5 L8D
Criterion met

API: query returns whether the variant falls strictly under 1 in ratio to parent. Query: chain 5 I2D
Criterion not met

API: query returns whether the variant falls strictly under 1 in ratio to parent. Query: chain 5 S1T
Criterion not met

API: query returns whether the variant falls strictly under 1 in ratio to parent. Query: chain 5 E6Y
Criterion not met

API: query returns whether the variant falls strictly under 1 in ratio to parent. Query: chain 5 S1Q
Criterion met

API: query returns whether the variant falls strictly under 1 in ratio to parent. Query: chain 5 L8C
Criterion not met

API: query returns whether the variant falls strictly under 1 in ratio to parent. Query: chain 5 I2V
Criterion not met

API: query returns whether the variant falls strictly under 1 in ratio to parent. Query: chain 5 L8N
Criterion met

API: query returns whether the variant falls strictly under 1 in ratio to parent. Query: chain 5 I3Y
Criterion not met

API: query returns whether the variant falls strictly under 1 in ratio to parent. Query: chain 5 E6Q
Criterion not met

API: query returns whether the variant falls strictly under 1 in ratio to parent. Query: chain 5 I2Y
Criterion not met

API: query returns whether the variant falls strictly under 1 in ratio to parent. Query: chain 5 S1F
Criterion met

API: query returns whether the variant falls strictly under 1 in ratio to parent. Query: chain 5 I3V
Criterion not met

API: query returns whether the variant falls strictly under 1 in ratio to parent. Query: chain 5 L8Q
Criterion not met

API: query returns whether the variant falls strictly under 1 in ratio to parent. Query: chain 5 I2N
Criterion met
